System: SK-MEL-5
Experiment: NCI tumour cell line growth inhibition, 48 h
Calls of active or inactive are those of the source. Cut-off read from the data, not from the text of the source: active = GI50 up to about 1.1 µM and inactive = higher.
Thanks in advance; please answer with one of these: YES for active, NO for inactive

Record excerpt, results attached:
[
  {
    "Compound": "CC(=O)Oc1ccc(/C=C/C(=O)O[C@H]2CCCC[C@@H]2OC(=O)/C=C/c2ccc(OC(C)=O)c(OC(C)=O)c2)cc1OC(C)=O",
    "Assigned Class": "NO"
  },
  {
    "Compound": "O=C=NCCCCCCN1C(=O)N2C(c3ccccc3)N(CCCCCCN=C=O)C(=O)N2C1c1ccccc1 (configuration not stated)",
    "Assigned Class": "NO"
  },
  {
    "Compound": "COc1ccc(-c2cc(=O)c3c(O)c(OC)c(O)cc3o2)cc1O",
    "Assigned Class": "NO"
  },
  {
    "Compound": "COc1ccc(C(=O)C(c2ccc(OCc3ccccc3)cc2)c2ccc(OCc3ccccc3)cc2)cc1",
    "Assigned Class": "NO"
  },
  {
    "Compound": "O=c1c2ncn(COCCCl)c2n(-c2ccccc2)c(=S)n1-c1ccccc1",
    "Assigned Class": "NO"
  }
]

I would be grateful if you could indicate the recorded call for Cc1ccc(C(=O)O/N=C2/CCCC/C2=C\c2ccccc2)cc1 . NO

I would be grateful if you could indicate the recorded call for CC(C)/C(Cl)=N\OC(=O)Nc1ccc(S(N)(=O)=O)cc1 . NO

I would be grateful if you could indicate the recorded call for COc1cc(Cl)c(CC(=O)c2c[nH]c3ccccc23)cc1OC . NO

====

Tested on: OVCAR-8
Assay: NCI tumour cell line growth inhibition, 48 h
Activity calls are given as the source filed them. Rule as the data show it: active = GI50 up to about 1.1 µM and inactive = higher.
Thanks in advance; please answer with one of these: active, inactive

Record excerpt, results attached:
[
  {
    "Compound": "Cc1n[nH]c(CC#N)n1",
    "Measured Target": "OVCAR-8",
    "Assigned Class": "inactive"
  },
  {
    "Compound": "COc1cc(Cl)c(CC(=O)c2c[nH]c3ccccc23)cc1OC",
    "Measured Target": "OVCAR-8",
    "Assigned Class": "inactive"
  },
  {
    "Compound": "Cc1cc(O)nc(CNC(=O)c2ccc3ccccc3c2)n1",
    "Measured Target": "OVCAR-8",
    "Assigned Class": "inactive"
  },
  {
    "Compound": "O=c1c2ncn(COCCCl)c2n(-c2ccccc2)c(=S)n1-c1ccccc1",
    "Measured Target": "OVCAR-8",
    "Assigned Class": "inactive"
  },
  {
    "Compound": "CN1C/C(=C\\c2cccs2)C2=NN(c3ccccc3)C(c3cccs3)C2C1 (stereo not drawn)",
    "Measured Target": "OVCAR-8",
    "Assigned Class": "inactive"
  }
]

For the next question, use this compound.
I would be grateful if you could indicate the recorded call for CC1C(=O)N=C2C(=CN(Cc3ccccc3)c3ccccc32)C(=O)N1C (stereo not drawn) . inactive

====

Tested on: ACHN
Assay: NCI tumour cell line growth inhibition, 48 h
Calls of active or inactive are those of the source. Rule as the data show it: active = GI50 up to about 1.1 µM and inactive = higher.
Property Measured: GI50

Consider the reported GI50 for these compounds:
[
  {
    "Compound": "COC(=O)[C@@H](Cc1ccccc1)NNC(=O)OC(C)(C)C",
    "GI50": "> 100 µM (inactive)"
  },
  {
    "Compound": "COc1ccc(-c2cc(=O)c3c(O)c(OC)c(O)cc3o2)cc1O",
    "GI50": "13.8 µM (inactive)"
  },
  {
    "Compound": "Cc1cc2c(c(/C=N/c3ccc(N(C)C)cc3)c1)OC1(C=C2)Oc2ccccc2C(=O)N1C (stereo not given)",
    "GI50": "12.2 µM (inactive)"
  },
  {
    "Compound": "CCOC(=O)C12CCCC1(O)N(NC(N)=O)C(C)=C2C(=O)OC (stereo not given)",
    "GI50": "> 100 µM (inactive)"
  },
  {
    "Compound": "CN(C)C=C1C(=O)N(C)C(=O)N(C)C1=O",
    "GI50": "> 100 µM (inactive)"
  },
  {
    "Compound": "CCN(CC)CC1CCCCN1CC(=O)N1c2ccccc2NC(=O)c2ccccc21 (stereo not given)",
    "GI50": "> 100 µM (inactive)"
  },
  {
    "Compound": "CCc1n[nH]c(=O)n1/N=C/c1c(O)ccc2ccccc12",
    "GI50": "> 100 µM (inactive)"
  },
  {
    "Compound": "Cc1cn(C2CC(OC(=O)c3ccc(Cl)cc3)C(COC(=O)c3ccc(Cl)cc3)O2)c(=O)[nH]c1=O (stereo not given)",
    "GI50": "> 100 µM (inactive)"
  },
  {
    "Compound": "O=C(/C=C\\c1ccccc1)Oc1ccc(/C=C2\\CCCCC2=O)cc1",
    "GI50": "37.2 µM (inactive)"
  }
]

Fill in: GI50 of O=C(NN1C(=O)CSC1c1cccc(F)c1)c1ccncc1 (stereo not given) is ___ > 100 µM (inactive)

====

Items are presented alongside their recorded GI50.
Tested on: DLD-1
Test: NCI tumour cell line growth inhibition, 48 h
The source made the active and inactive calls. Cut-off read from the data, not from the text of the source: active = GI50 up to about 1.1 µM and inactive = higher.

[
  {
    "Compound": "Nc1ccc2nc(Nc3ccc(F)cc3)cnc2c1",
    "GI50": "> 100 µM (inactive)"
  }
]

Fill in: GI50 of CCOc1ccc(NC(=O)/C(=C/c2ccccc2)C(C)=O)cc1 is ___ 7.38 µM (inactive)

Fill in: GI50 of CCN(CC)CC(O)CNc1ccc(NCC2CO2)c2c1C(=O)c1ccccc1C2=O (stereo unspecified) is ___ 1.9 µM (inactive)

====

Test system: COLO 205
Assay: NCI tumour cell line growth inhibition, 48 h
Activity calls are given as the source filed them. Cut-off read from the data, not from the text of the source: active = GI50 up to about 1.1 µM and inactive = higher.
Property Measured: GI50

[
  {
    "Compound": "Cc1c(C(=O)c2ccccc2)[n+]([O-])c2cc(Cl)c(Cl)cc2[n+]1[O-]",
    "GI50": "18.1 µM (inactive)"
  }
]

Fill in: GI50 of COC(=O)C1=C(O)C(C(=O)OC)[C@]2(O)[C@H](C(=O)OC)[C@H]1C[C@@H](c1ccc(OC)c(OC)c1)[C@H]2C(=O)OC (stereo not given in full) is ___ 17.9 µM (inactive)

Fill in: GI50 of COc1ccc(O)c(/C=N\Nc2ccccc2)c1 is ___ 10.6 µM (inactive)

Fill in: GI50 of O=C1CCc2c(sc3ncnc(Nc4cccc(Br)c4)c23)C1 is ___ 7.36 µM (inactive)

Fill in: GI50 of COc1ccc(-c2cc(=O)c3c(OC)c(OC)c(OC)c(OC)c3o2)cc1OC [NOBILETIN] is ___ 35 µM (inactive)

Fill in: GI50 of O=C(Cc1ccc(F)cc1)NC1=C(Cl)C(=O)c2ccccc2C1=O is ___ 3.66 µM (inactive)

Fill in: GI50 of C=CC[C@@]1(OC(C)=O)C(=O)C(=O)OC1C1COC(C)(C)O1 (stereo not given in full) is ___ 12.9 µM (inactive)

Fill in: GI50 of Cn1ncc2c(Cl)ncnc21 is ___ > 100 µM (inactive)

Fill in: GI50 of COc1ccc(NC(=O)C(=O)c2c(O)c3ccc(O)cc3oc2=O)c([N+](=O)[O-])c1 is ___ > 100 µM (inactive)

Fill in: GI50 of COc1cccc2c1C(=O)C=CC2=O is ___ 7.06 µM (inactive)

====

Test system: SK-MEL-2
Test: NCI tumour cell line growth inhibition, 48 h
Activity calls are given as the source filed them. No stated cut-off is given here; in the data, active = GI50 up to about 1.1 µM and inactive = higher.
Thanks in advance; please answer with one of these: active, inactive

Record excerpt, results attached:
[
  {
    "Molecule": "O=[N+]([O-])c1ccc(CSCc2ccc(Cl)cc2)cc1",
    "Measured Target": "SK-MEL-2",
    "Assigned Class": "inactive"
  },
  {
    "Molecule": "COc1c(OC(C)C)cc2cc(O)c(C(=O)NC3Cc4ccc(c(Cl)n4)O[C@@H]4C=C5C#C/C(=C\\C#CC6OC56C4OC4CC(C)(O)C(O)C(C)O4)C(OC4CC(O)C(N(C)C)C(C)O4)COC3=O)cc2c1OC (some centres undefined)",
    "Measured Target": "SK-MEL-2",
    "Assigned Class": "inactive"
  },
  {
    "Molecule": "CC(C)NC(=O)OCc1c(COC(=O)NC(C)C)c(-c2ccc[n+](COC(=O)C3CCCCC3)c2)n2c1CCC2",
    "Measured Target": "SK-MEL-2",
    "Assigned Class": "inactive"
  }
]

For the next question, use this molecule.
I would be grateful if you could indicate the recorded call for COC1=C(C)C(=O)c2c(c(COC(N)=O)c3n2CC(OC(C)=O)C3OC(C)=O)C1=O (centres undefined) . active

Reference source for all entries: ChEMBL document CHEMBL1201862
